Values compiled from ChEMBL document CHEMBL4715808.

target: UniProtKB Q14832; experiment: […] at mGlu3 (unknown origin)
Measured Property: pIC50
Note on units: pIC50 is unitless, being -log10 of a concentration expressed in mol/L.

Short answer on UniProtKB Q14832 for N[C@@]1(C(=O)O)CC[C@H]2[C@H](C(=O)O)[C@H]21 , pIC50: 7.55

----------
target: CYP3A4 (Homo sapiens, UniProt P08684); test: Inhibition of human CYP3A4 at 10 uM relative to control; assay type: ADME
Sequence (P08684 whole entry): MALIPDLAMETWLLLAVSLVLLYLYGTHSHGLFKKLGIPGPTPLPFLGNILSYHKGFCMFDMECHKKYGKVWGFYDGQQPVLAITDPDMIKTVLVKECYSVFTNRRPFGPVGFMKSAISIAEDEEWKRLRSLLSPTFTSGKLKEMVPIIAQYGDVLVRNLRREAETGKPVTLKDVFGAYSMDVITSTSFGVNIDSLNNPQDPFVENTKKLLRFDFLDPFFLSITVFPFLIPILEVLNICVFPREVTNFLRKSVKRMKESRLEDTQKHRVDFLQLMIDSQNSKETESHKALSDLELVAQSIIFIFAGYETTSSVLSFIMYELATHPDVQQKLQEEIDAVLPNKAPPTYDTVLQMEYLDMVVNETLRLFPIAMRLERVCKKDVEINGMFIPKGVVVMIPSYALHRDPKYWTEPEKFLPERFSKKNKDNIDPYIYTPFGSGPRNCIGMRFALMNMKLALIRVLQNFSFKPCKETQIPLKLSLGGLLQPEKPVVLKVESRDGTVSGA
Measured Property: inhibition at 10 µM

The reported value for Cl.N[C@]1(C(=O)O)[C@@H]2[C@@H](C(=O)O)[C@@H]2[C@H](O)[C@H]1CSc1ccc(F)c(F)c1 in terms of inhibition at 10 µM is < 10%

----------
experiment: AUC (0 to 24 hrs) in CD1 mouse plasma in fasting state at 3.3 mg/kg, ip administered as single dose measured after 24 hrs by LC-MS/MS analysis; type: ADME, organism-based; design: route intraperitoneal, time 24 hrs, dose 3.3 mg/kg
Measured Property: AUC(0-t) at 24 h
State the result as a value with its unit after it.

The reported value for Cl.N[C@]1(C(=O)O)[C@@H]2[C@@H](C(=O)O)[C@@H]2[C@H](O)[C@H]1CSc1ccc(F)c(F)c1 in terms of AUC(0-t) at 24 h is 15.2 µM·h

----------
test: Tmax in CD1 mouse plasma in fasting state at 3.3 mg/kg, ip administered as single dose measured after 24 hrs by LC-MS/MS analysis; type: ADME, organism-based
Measured Property: Tmax (min)
I only need the number, in min, no unit after it.

The reported value for Cl.N[C@]1(C(=O)O)[C@@H]2[C@@H](C(=O)O)[C@@H]2[C@H](O)[C@H]1CSc1ccc(F)c(F)c1 in terms of Tmax is 15

----------
test: Metabolic stability of compound in human hepatocytes assessed as parent compound loss at 2 uM; format: ADME, cell-based, Hepatocyte; conditions: read-out: Drug degradation
Measured Property: metabolised at 2 µM

The reported value for Cl.N[C@]1(C(=O)O)[C@@H]2[C@@H](C(=O)O)[C@@H]2[C@H](O)[C@H]1CSc1ccc(F)c(F)c1 in terms of metabolised at 2 µM is < 15%

----------
biological target: Metabotropic glutamate receptor 4 (Homo sapiens); test: Agonist activity at human recombinant mGlu4 stably expressed in golden hamster AV12 cell membrane co-expressing Galpha15 assessed as assessed as increase in calcium influx incubated for 90 to 120 min by Fluo-4-AM dye based FLIPR assay
Sequence (Q14833 whole entry): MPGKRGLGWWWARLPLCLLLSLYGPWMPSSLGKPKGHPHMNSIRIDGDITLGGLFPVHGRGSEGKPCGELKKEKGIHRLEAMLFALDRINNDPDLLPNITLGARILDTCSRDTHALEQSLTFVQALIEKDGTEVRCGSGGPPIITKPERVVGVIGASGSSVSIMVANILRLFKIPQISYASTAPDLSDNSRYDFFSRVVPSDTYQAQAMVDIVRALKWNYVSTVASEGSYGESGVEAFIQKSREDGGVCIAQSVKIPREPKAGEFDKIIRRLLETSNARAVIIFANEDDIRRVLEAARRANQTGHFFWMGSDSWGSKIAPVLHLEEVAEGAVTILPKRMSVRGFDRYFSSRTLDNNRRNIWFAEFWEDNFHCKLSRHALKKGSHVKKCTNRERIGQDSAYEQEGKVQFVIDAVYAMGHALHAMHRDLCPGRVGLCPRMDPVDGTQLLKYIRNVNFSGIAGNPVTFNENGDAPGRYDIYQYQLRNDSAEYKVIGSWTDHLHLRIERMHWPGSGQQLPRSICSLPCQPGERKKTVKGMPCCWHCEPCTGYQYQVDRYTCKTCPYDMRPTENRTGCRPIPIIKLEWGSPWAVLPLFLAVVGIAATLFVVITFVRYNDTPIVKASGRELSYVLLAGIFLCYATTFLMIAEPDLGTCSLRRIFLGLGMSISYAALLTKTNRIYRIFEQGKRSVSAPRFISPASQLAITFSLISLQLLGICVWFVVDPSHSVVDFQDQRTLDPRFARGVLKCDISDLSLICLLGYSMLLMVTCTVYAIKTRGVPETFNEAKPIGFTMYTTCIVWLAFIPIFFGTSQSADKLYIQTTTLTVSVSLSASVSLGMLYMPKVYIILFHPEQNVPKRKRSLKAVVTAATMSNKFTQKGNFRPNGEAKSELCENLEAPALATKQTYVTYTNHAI
Measured Property: EC50

The reported value for Cl.N[C@]1(C(=O)O)[C@@H]2[C@@H](C(=O)O)[C@@H]2[C@H](O)[C@H]1CSc1ccc(F)c(F)c1 in terms of EC50 is > 25 µM

----------
experiment: Metabolic stability of compound in rat hepatocytes assessed as parent compound loss at 2 uM; type: ADME, cell-based, Hepatocyte; conditions: read-out: Drug degradation
Measured Property: metabolised at 2 µM

The reported value for Cl.N[C@]1(C(=O)O)[C@@H]2[C@@H](C(=O)O)[C@@H]2[C@H](O)[C@H]1CSc1ccc(F)c(F)c1 in terms of metabolised at 2 µM is < 15%

----------
experiment: Half life in CD1 mouse plasma in fasting state at 3.3 mg/kg, ip administered as single dose measured after 24 hrs by LC-MS/MS analysis; type: ADME, organism-based
Measured Property: half-life (min)
I only need the number, in min, no unit after it.

The reported value for Cl.N[C@]1(C(=O)O)[C@@H]2[C@@H](C(=O)O)[C@@H]2[C@H](O)[C@H]1CSc1ccc(F)c(F)c1 in terms of half-life is 30

----------
molecular target: CYP2D6 (Homo sapiens, UniProt P10635); assay: Inhibition of human CYP2D6 at 10 uM relative to control; format: ADME
Sequence (P10635 whole entry): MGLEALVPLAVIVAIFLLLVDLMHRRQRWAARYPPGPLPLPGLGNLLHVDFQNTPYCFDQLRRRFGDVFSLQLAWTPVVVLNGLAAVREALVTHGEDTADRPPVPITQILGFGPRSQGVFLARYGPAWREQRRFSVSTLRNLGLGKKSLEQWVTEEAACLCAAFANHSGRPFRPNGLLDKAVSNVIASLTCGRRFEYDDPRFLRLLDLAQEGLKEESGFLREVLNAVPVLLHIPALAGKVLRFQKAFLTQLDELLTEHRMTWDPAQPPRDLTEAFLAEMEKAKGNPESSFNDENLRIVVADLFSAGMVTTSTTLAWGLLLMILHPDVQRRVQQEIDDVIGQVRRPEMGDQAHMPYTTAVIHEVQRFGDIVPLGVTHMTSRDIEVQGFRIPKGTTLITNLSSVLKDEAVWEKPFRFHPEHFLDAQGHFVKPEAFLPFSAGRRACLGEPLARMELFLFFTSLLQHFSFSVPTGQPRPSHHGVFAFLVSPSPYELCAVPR
Measured Property: inhibition at 10 µM

Short answer on CYP2D6 (Homo sapiens, UniProt P10635) for Cl.N[C@]1(C(=O)O)[C@@H]2[C@@H](C(=O)O)[C@@H]2[C@H](O)[C@H]1CSc1ccc(F)c(F)c1 , inhibition at 10 µM: < 10%

----------
test: Cmax in CD1 mouse plasma in fasting state at 3.3 mg/kg, ip administered as single dose measured after 24 hrs by LC-MS/MS analysis; type: ADME, organism-based; set-up: route intraperitoneal, dose 3.3 mg/kg, time 24 hrs
Measured Property: Cmax (µM)
I only need the number, in µM, no unit after it.

The reported value for Cl.N[C@]1(C(=O)O)[C@@H]2[C@@H](C(=O)O)[C@@H]2[C@H](O)[C@H]1CSc1ccc(F)c(F)c1 in terms of Cmax is 20.6

----------
target: Metabotropic glutamate receptor 1 (Homo sapiens); assay: Antagonist activity at human recombinant mGlu1 stably expressed in golden hamster AV12 cell membrane co-expressing Gq assessed as reduction in glutamate-induced calcium influx incubated for 90 to 120 min by Fluo-4-AM dye based FLIPR assay
Sequence (Q13255 whole entry): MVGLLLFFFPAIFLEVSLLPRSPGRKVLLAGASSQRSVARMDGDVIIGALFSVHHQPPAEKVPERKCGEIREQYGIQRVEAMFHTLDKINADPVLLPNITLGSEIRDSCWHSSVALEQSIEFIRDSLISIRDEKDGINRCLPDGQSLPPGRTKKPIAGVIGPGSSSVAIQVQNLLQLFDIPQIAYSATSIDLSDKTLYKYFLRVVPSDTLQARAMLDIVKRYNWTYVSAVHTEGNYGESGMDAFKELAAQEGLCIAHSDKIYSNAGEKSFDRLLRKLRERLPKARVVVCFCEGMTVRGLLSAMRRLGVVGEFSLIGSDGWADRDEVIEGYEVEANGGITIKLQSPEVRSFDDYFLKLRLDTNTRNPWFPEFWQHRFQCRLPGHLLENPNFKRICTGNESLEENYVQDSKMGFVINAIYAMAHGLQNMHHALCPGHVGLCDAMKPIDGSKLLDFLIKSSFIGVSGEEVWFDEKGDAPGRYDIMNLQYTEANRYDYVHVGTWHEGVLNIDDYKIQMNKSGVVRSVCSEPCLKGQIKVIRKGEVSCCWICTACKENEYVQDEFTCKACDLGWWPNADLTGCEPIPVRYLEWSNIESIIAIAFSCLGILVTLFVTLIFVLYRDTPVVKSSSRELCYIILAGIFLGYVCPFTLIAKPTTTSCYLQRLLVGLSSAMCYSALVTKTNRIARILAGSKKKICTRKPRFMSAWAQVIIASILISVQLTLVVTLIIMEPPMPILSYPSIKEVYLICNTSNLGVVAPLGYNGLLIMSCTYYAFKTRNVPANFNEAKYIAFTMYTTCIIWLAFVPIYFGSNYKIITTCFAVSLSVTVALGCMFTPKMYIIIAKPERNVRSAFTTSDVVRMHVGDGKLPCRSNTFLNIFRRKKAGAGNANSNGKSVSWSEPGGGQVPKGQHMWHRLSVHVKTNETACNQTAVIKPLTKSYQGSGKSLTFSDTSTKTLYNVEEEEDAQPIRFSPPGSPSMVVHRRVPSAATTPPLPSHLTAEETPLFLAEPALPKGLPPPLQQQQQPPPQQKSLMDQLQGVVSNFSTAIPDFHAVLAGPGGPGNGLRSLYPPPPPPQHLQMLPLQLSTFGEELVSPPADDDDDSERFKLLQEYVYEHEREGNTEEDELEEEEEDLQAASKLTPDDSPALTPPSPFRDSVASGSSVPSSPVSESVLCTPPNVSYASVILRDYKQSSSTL
pIC50: −log10 of the molar value.
Measured Property: pIC50

The reported value for Cl.N[C@]1(C(=O)O)[C@@H]2[C@@H](C(=O)O)[C@@H]2[C@H](O)[C@H]1CSc1ccc(F)c(F)c1 in terms of pIC50 is < 4.90

----------
target: Metabotropic glutamate receptor 3 (Homo sapiens); assay: Antagonist activity at human recombinant mGlu3 stably expressed in golden hamster AV12 cell membrane co-expressing Galpha15 assessed as assessed as reduction in glutamate-induced calcium influx incubated for 90 to 120 min by Fluo-4-AM dye based FLIPR assay; format: functional, cell membranes
Measured Property: IC50 (nM)
I only need the number, in nM, no unit after it.

Short answer on Metabotropic glutamate receptor 3 (Homo sapiens) for Cl.N[C@]1(C(=O)O)[C@@H]2[C@@H](C(=O)O)[C@@H]2[C@H](O)[C@H]1CSc1ccc(F)c(F)c1 , IC50: 2.5

----------
experiment: Antagonist activity at human recombinant mGlu7 stably expressed in golden hamster AV12 cell membrane co-expressing Galpha15 assessed as reduction in glutamate-induced calcium influx incubated for 90 to 120 min by Fluo-4-AM dye based FLIPR assay; format: cell membranes
Measured Property: IC50 (µM)
I only need the number, in µM, no unit after it.

The reported value for Cl.N[C@]1(C(=O)O)[C@@H]2[C@@H](C(=O)O)[C@@H]2[C@H](O)[C@H]1CSc1ccc(F)c(F)c1 in terms of IC50 is 1.26

----------
molecular target: Metabotropic glutamate receptor 6 (Homo sapiens); test: Antagonist activity at human recombinant mGlu6 stably expressed in golden hamster AV12 cell membrane co-expressing Galpha15 assessed as reduction in glutamate-induced calcium influx incubated for 90 to 120 min by Fluo-4-AM dye based FLIPR assay
Sequence (O15303 whole entry): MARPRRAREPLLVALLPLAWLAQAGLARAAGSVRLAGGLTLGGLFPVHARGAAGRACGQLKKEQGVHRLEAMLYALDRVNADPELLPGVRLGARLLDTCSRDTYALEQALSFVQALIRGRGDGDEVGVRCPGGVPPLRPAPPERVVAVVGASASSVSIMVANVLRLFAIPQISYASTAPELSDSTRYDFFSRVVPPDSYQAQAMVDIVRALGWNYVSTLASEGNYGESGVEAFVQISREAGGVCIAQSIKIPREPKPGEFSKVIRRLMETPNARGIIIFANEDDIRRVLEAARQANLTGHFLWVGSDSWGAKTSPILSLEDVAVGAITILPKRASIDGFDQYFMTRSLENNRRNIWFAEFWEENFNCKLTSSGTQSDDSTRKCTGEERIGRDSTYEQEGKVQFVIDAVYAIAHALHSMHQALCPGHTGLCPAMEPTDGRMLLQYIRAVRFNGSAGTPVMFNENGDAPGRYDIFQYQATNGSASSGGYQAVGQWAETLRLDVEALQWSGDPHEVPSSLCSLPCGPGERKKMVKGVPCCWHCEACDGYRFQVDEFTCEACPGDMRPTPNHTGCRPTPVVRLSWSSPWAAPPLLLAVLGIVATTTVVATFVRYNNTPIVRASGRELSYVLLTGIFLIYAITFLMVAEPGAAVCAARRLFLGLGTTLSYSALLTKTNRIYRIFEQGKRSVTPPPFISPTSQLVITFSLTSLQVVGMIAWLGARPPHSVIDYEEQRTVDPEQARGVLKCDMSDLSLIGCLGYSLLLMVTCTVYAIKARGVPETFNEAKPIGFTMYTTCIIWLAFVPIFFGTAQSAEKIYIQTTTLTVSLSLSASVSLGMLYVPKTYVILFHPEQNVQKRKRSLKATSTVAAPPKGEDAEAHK
Measured Property: pIC50
Note on units: pIC50 is unitless, being -log10 of a concentration expressed in mol/L.

Short answer on Metabotropic glutamate receptor 6 (Homo sapiens) for Cl.N[C@]1(C(=O)O)[C@@H]2[C@@H](C(=O)O)[C@@H]2[C@H](O)[C@H]1CSc1ccc(F)c(F)c1 , pIC50: 5.40

----------
molecular target: Metabotropic glutamate receptor 3 (Homo sapiens, UniProt Q14832); experiment: Antagonist activity at human recombinant mGlu3 receptor stably expressed in golden hamster AV12 cells co-expressing rat EAAT1 assessed as reduction in DCG IV-induced inhibition of forskolin-stimulated cAMP accumulation preincubated for 20 mins followed by incubation with cAMP-d2 conjugate and anti-cAMP cryptate for 1 hr by HTRF assay; type: functional, cell-based
Sequence (Q14832 whole entry): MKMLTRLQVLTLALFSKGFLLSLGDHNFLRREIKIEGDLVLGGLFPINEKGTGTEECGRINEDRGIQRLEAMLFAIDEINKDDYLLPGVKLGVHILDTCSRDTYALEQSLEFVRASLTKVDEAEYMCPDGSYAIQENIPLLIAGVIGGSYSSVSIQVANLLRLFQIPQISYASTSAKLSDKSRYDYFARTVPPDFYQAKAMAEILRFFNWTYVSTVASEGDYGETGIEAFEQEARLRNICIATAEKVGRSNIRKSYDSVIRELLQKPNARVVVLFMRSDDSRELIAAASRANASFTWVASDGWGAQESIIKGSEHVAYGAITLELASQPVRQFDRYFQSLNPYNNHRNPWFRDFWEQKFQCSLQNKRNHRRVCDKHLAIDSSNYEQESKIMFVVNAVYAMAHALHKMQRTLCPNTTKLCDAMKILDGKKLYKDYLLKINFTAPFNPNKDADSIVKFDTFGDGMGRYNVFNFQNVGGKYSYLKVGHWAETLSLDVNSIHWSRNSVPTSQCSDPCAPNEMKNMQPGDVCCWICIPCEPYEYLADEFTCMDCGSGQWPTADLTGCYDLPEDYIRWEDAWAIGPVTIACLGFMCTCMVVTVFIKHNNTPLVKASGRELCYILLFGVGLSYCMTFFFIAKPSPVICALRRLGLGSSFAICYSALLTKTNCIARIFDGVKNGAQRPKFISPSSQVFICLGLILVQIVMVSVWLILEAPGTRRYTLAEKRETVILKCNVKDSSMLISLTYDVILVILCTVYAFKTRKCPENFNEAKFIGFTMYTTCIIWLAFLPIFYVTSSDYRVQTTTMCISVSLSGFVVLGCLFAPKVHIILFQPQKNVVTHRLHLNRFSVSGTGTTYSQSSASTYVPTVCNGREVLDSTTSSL
Measured IC50, listed per entry.

Take a look at these entries with their results.
INSERT INTO results (chem_smiles, experimental_target, measured_property, result) VALUES
  ('Cc1cc(SC[C@@H]2[C@@H](N)[C@H]3[C@H](C(=O)O)[C@H]3[C@]2(N)C(=O)O)ccc1F', 'Metabotropic glutamate receptor 3 (Homo sapiens, UniProt Q14832)', 'IC50', '0.163 µM'),
  ('N[C@@]1(C(=O)O)[C@H](Cc2ccc(F)c(Cl)c2)C[C@H]2[C@H](C(=O)O)[C@H]21', 'Metabotropic glutamate receptor 3 (Homo sapiens, UniProt Q14832)', 'IC50', '0.11 µM');

Let us move to another entry and its IC50.
The reported value for N[C@]1(C(=O)O)[C@@H]2[C@@H](C(=O)O)[C@@H]2[C@H](O)[C@H]1CSCc1ccc(Cl)c(Cl)c1 in terms of IC50 is 0.0623 µM
